Where do these numbers come from? They come from paper PMC8518639.

assay: Caco-2 cell permeability assay; type: in vitro ADME; details: human, Caco-2, Papp, Replicate 2, Direction B‐A, 10 μM, 90 min
measured_attribute: Papp at 90 min, 10 μM (×10⁻⁶ cm/s)

COCCc1ccc(OCC(O)CNC(C)C)cc1 (centres unmarked) ... 33.3
CC[C@H]1OC(=O)[C@H](C)[C@@H](O[C@H]2C[C@@](C)(OC)[C@@H](O)[C@H](C)O2)[C@H](C)[C@@H](O[C@@H]2O[C@H](C)C[C@H](N(C)C)[C@H]2O)[C@](C)(O)C[C@@H](C)C(=O)[C@H](C)[C@@H](O)[C@]1(C)O ... 17.5

###

Each entry below lists one item and its recorded Papp at 90 min, 10 μM value.
assay: Caco-2 cell permeability assay; format: in vitro ADME; conditions: human, Caco-2, Papp, Replicate 2, Direction A‐B, 10 μM, 90 min
measured_attribute: Papp at 90 min, 10 μM (×10⁻⁶ cm/s)

CC[C@H]1OC(=O)[C@H](C)[C@@H](O[C@H]2C[C@@](C)(OC)[C@@H](O)[C@H](C)O2)[C@H](C)[C@@H](O[C@@H]2O[C@H](C)C[C@H](N(C)C)[C@H]2O)[C@](C)(O)C[C@@H](C)C(=O)[C@H](C)[C@@H](O)[C@]1(C)O [Erythromycin] ... 0.2
COCCc1ccc(OCC(O)CNC(C)C)cc1 (centres unmarked) [Metoprolol] ... 31.4

###

target: SETD2 (Homo sapiens, UniProt Q9BYW2)
Sequence (Q9BYW2 whole entry): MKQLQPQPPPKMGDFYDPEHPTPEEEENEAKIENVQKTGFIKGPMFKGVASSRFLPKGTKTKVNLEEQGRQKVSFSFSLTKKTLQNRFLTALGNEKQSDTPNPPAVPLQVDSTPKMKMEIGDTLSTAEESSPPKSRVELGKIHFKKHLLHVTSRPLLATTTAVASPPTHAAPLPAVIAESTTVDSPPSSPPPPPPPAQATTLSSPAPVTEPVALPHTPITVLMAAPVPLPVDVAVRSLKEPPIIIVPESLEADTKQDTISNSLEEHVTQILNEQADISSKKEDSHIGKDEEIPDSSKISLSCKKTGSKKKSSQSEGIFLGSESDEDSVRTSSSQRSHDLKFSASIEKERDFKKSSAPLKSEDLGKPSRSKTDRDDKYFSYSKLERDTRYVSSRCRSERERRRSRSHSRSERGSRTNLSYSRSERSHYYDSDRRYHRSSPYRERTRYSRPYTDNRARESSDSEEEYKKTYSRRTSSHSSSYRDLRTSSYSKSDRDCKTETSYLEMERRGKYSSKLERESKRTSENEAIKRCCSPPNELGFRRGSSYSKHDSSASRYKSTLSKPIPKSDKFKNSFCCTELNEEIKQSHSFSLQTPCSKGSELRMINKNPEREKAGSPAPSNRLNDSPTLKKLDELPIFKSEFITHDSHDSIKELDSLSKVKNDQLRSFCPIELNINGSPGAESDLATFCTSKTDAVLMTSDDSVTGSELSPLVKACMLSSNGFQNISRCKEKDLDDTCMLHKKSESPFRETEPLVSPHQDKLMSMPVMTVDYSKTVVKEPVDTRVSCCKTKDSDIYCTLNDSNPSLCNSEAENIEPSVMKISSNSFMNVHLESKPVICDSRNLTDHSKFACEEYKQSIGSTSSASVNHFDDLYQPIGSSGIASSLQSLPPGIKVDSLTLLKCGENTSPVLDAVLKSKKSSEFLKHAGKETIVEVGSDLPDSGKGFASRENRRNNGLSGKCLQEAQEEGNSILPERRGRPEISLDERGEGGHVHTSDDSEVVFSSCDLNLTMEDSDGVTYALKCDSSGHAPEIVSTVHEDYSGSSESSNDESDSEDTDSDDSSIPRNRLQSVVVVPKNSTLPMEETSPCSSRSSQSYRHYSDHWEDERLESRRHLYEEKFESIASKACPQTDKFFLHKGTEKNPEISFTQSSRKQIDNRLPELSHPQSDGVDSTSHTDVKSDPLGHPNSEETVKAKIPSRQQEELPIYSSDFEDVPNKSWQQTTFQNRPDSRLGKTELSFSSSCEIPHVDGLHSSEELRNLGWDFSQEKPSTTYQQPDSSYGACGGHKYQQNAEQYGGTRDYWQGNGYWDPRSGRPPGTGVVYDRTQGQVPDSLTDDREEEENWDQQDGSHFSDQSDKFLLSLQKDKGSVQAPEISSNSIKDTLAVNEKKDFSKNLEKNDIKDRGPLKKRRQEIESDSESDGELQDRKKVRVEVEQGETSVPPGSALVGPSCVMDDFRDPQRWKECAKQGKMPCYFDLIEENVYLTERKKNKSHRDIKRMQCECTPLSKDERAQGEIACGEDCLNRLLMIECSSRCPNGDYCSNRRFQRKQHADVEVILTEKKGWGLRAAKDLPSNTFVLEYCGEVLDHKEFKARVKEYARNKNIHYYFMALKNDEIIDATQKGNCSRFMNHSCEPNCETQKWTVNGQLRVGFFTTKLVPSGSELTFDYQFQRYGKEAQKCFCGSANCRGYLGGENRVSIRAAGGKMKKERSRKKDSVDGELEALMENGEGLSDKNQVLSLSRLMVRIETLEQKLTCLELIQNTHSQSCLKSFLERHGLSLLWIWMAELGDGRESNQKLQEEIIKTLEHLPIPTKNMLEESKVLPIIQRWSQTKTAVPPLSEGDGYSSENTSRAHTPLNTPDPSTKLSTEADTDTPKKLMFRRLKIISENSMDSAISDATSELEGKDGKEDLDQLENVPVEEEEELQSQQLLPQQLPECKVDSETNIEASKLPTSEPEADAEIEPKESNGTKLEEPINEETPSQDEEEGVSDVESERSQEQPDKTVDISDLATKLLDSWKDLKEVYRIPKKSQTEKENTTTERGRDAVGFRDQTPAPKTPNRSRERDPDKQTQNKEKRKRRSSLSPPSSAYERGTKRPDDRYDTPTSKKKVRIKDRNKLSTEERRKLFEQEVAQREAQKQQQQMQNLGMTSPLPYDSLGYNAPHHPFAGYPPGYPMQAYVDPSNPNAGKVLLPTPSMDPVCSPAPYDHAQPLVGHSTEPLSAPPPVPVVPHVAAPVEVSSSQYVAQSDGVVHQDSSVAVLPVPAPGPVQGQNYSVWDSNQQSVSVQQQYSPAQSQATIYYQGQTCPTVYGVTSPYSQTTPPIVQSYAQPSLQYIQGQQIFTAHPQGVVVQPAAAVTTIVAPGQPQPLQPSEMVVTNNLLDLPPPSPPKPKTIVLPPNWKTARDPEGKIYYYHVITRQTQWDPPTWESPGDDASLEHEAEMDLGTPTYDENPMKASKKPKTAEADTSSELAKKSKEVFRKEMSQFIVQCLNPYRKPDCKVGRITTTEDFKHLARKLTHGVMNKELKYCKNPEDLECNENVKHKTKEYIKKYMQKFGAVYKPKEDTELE
pIC50: −log10 of the molar value.
measured_attribute: pIC50

Nc1ncnc2c1ncn2[C@@H]1O[C@H](CSCC[C@H](N)C(=O)O)[C@@H](O)[C@H]1O [SAH, S‐(5′‐adenosyl)‐ʟ‐homocysteine] ... 5.13

###

target: PRDM9 (Homo sapiens)
Sequence (Q9NQV7 whole entry): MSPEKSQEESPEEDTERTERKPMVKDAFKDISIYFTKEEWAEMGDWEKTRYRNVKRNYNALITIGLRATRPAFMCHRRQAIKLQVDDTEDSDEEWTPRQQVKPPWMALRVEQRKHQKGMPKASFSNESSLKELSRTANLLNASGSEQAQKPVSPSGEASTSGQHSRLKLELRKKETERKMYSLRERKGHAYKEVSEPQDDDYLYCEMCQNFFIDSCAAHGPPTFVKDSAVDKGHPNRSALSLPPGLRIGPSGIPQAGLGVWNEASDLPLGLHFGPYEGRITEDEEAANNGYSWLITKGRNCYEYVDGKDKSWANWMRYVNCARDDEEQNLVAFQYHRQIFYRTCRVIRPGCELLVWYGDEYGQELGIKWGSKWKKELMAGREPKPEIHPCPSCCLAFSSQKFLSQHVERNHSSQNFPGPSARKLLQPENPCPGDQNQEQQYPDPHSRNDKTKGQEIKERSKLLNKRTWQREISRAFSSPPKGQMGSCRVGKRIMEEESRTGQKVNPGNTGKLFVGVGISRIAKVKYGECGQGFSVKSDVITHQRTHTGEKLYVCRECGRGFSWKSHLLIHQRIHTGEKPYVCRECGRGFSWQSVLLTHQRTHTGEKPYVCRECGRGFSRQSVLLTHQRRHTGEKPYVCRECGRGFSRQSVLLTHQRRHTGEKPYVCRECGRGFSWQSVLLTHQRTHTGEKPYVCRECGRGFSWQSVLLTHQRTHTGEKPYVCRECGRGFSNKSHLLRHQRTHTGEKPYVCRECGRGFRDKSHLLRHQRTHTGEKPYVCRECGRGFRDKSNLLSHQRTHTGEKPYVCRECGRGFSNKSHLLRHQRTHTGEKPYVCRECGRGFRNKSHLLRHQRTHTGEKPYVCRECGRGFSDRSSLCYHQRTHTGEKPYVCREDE
measured_attribute: IC50 (µM)

CN1C(=O)[C@@]23C[C@]4([C@]56C[C@@]78SS[C@@](CO)(C(=O)N7[C@H]5Nc5ccccc56)N(C)C8=O)c5ccccc5N[C@@H]4N2C(=O)[C@]1(CO)SS3 ... 3.98
